# Tested on: HS 578T breast
# experiment-notes: NCI-60 one-dose screen, 48 h
# condition-summary: 10 µM unless noted
# Protocol: Growth inhibition of the HS 578T human tumor cell line is measured as a screen for anti-cancer activity. Cells are grown in 96 well plates and exposed to the test compound for 48 hours. Compounds are tested at a single concentration, which is 10^-5 M for most compounds. The reported endpoint is percent growth (GI% or GIPRCNT), where numbers from 0 - 100% represent growth inhibition, and numbers from -100% - 0 represent cell death. For example, a value of 40 represents 60% growth inhibition. […]
This is part of a sample that, as a whole, favours compounds with a hit. Of some 83,000 tested, about 20% had one in any assay. Activity calls are given as the source filed them. How the source made its calls: active means growth percent below 10; inactive means the rest.
Select the matching outcome among t for active, f for inactive

[
  {
    "compound": "Cc1ccc(NC2CC(=O)N(c3c(C)cc(C)cc3C)C2=O)c(C)c1 (centres undefined)",
    "label-value": "f"
  },
  {
    "compound": "COc1ccc(C2(Cl)c3ccccc3N(c3ccccc3)c3ccccc32)cc1",
    "label-value": "t"
  },
  {
    "compound": "COc1ccc(/C(=C\\c2ccc3c(c2)OCO3)C(=O)Nc2nc3ccccc3s2)cc1OC",
    "label-value": "f"
  }
]

(Q) Recorded test outcome, item COc1ccc(-c2cc(=O)oc3ccc(Cl)cc23)cc1F
(A) f

(Q) Recorded test outcome, item Cn1cccc1/C=C1/SC(=S)N(CCc2ccc(O)cc2)C1=O
(A) f

(Q) Recorded test outcome, item CC1(C)CC[C@]2(C(=O)NCCNCCN)CC[C@]3(C)C(=CC[C@@H]4[C@@]5(C)CCC(=O)C(C)(C)[C@@H]5CC[C@]43C)[C@@H]2C1
(A) f

(Q) Recorded test outcome, item Cc1cc(C=O)c(C)c2c1[nH]c1ccccc12
(A) f

(Q) Recorded test outcome, item COc1cc2[nH]c(C(=O)c3cc(OC)c(OC)c(OC)c3)c(N)c2cc1C#CC1CC1
(A) t

(Q) Recorded test outcome, item COC(=O)[C@]12CC[C@@H](C)[C@H](C)[C@@H]1C1=CC(=O)[C@@H]3[C@@]4(C)C[C@@H](OC(C)=O)[C@H](OC(C)=O)[C@@](C)(COC(C)=O)[C@@H]4C(=O)C[C@@]3(C)[C@]1(C)CC2
(A) f

---

Form field: growth (one value per entry).
# Test system: HOP-62 NSCLC
# experiment-notes: NCI-60 one-dose screen, 48 h (100 = growth as untreated, 0 = no growth, -100 = all killed)
# condition-summary: 10 µM unless noted
This is part of a sample that, as a whole, favours compounds with a hit. Of some 83,000 tested, about 20% had one in any assay. The source made the active and inactive calls. How the source made its calls: active means growth percent below 10; inactive means the rest.

(Q) What value of growth has been reported for the following compound? C#CCN=C[C@]12CC[C@@H](C(=C)C)[C@@H]1[C@H]1CC[C@@H]3[C@@]4(C)CCC(=O)C(C)(C)[C@@H]4CC[C@@]3(C)[C@]1(C)CC2
(A) 88.8% (inactive)

(Q) What value of growth has been reported for the following compound? COc1cc2nc(Cl)nc(Nc3cccc(C(=O)/C=C/c4ccccc4)c3)c2cc1OC
(A) 70.1% (inactive)

(Q) What value of growth has been reported for the following compound? C=C(C)[C@@H]1CC[C@]2(CN)CC[C@]3(C)[C@H](CC[C@@H]4[C@@](C)(CCCN)[C@H](C(=C)C)CC[C@]43C)[C@@H]12
(A) 90.6% (inactive)

(Q) What value of growth has been reported for the following compound? COc1ccc(/C(=C\c2ccc3c(c2)OCO3)C(=O)Nc2nc3ccccc3s2)cc1OC
(A) 94.2% (inactive)

(Q) What value of growth has been reported for the following compound? Cc1cc2nc3c4cc(O)ccc4n(CCN(C)C)c3nc2cc1C
(A) 3.06% (active)

(Q) What value of growth has been reported for the following compound? Cc1ccc(N(CC(=O)Nc2ccc(S(=O)(=O)NC3CCN(C)CC3)cc2)S(=O)(=O)c2ccc(Cl)cc2)cc1
(A) 96.2% (inactive)

(Q) What value of growth has been reported for the following compound? O=C1C(=O)c2ccccc2C(O)=C1CCCc1ccc(C2CCCCC2)cc1
(A) 44% (inactive)

(Q) What value of growth has been reported for the following compound? O=C1NC(=Nc2ccc(S(=O)(=O)Nc3nccs3)cc2)S/C1=C\c1coc2ccccc2c1=O
(A) 99.5% (inactive)

(Q) What value of growth has been reported for the following compound? Nc1nc(N)c2nc3c(nc2n1)CCCCCCCCCC3
(A) 58.1% (inactive)
